Test: Experimental lipophilicity by RP-TLC
Settings: RP-TLC, acetone/TRIS 0.2 M pH 7.4, extrapolated to zero acetone
Listed next: entries and their corresponding RM0 (chromatographic parameter of lipophilicity).
metric_name: RM0 (chromatographic parameter of lipophilicity)

compound_structure_string=O=C1C(Cl)=C(Oc2cccc3ccc(N4CCOCC4)nc23)C(=O)c2ncccc21 value_reported=2.45
compound_structure_string=Cc1ccc2c(n1)C(=O)C(Oc1cccc3ccc(Cl)nc13)=C(Cl)C2=O value_reported=2.96
compound_structure_string=Cc1ccc2cccc(OC3=C(Cl)C(=O)c4ccccc4C3=O)c2n1 value_reported=3.34
compound_structure_string=O=Cc1ccc2cccc(OC3=C(Cl)C(=O)c4cccnc4C3=O)c2n1 value_reported=1.60
compound_structure_string=O=C1C(Cl)=C(Oc2cccc3ccc(Cl)nc23)C(=O)c2ncccc21 value_reported=2.55
